test: Oral bioavailability in dog at 10 mg/kg; assay type: ADME, organism-based, Canis lupus familiaris; conditions: in vivo
ATTRIBUTE MEASURED: bioavailability (%)
Use % as the unit, but write only the number.

## Task Returns the measured bioavailability for the input compound. Input: `N#Cc1c(Oc2ccc(F)c(NC(=O)Cc3cccc(C(F)(F)F)c3)c2)ccc2nc(NC(=O)C3CC3)sc12`
## Result 108

---

target: Hepatocyte growth factor receptor (Homo sapiens)
Sequence (P08581 whole entry): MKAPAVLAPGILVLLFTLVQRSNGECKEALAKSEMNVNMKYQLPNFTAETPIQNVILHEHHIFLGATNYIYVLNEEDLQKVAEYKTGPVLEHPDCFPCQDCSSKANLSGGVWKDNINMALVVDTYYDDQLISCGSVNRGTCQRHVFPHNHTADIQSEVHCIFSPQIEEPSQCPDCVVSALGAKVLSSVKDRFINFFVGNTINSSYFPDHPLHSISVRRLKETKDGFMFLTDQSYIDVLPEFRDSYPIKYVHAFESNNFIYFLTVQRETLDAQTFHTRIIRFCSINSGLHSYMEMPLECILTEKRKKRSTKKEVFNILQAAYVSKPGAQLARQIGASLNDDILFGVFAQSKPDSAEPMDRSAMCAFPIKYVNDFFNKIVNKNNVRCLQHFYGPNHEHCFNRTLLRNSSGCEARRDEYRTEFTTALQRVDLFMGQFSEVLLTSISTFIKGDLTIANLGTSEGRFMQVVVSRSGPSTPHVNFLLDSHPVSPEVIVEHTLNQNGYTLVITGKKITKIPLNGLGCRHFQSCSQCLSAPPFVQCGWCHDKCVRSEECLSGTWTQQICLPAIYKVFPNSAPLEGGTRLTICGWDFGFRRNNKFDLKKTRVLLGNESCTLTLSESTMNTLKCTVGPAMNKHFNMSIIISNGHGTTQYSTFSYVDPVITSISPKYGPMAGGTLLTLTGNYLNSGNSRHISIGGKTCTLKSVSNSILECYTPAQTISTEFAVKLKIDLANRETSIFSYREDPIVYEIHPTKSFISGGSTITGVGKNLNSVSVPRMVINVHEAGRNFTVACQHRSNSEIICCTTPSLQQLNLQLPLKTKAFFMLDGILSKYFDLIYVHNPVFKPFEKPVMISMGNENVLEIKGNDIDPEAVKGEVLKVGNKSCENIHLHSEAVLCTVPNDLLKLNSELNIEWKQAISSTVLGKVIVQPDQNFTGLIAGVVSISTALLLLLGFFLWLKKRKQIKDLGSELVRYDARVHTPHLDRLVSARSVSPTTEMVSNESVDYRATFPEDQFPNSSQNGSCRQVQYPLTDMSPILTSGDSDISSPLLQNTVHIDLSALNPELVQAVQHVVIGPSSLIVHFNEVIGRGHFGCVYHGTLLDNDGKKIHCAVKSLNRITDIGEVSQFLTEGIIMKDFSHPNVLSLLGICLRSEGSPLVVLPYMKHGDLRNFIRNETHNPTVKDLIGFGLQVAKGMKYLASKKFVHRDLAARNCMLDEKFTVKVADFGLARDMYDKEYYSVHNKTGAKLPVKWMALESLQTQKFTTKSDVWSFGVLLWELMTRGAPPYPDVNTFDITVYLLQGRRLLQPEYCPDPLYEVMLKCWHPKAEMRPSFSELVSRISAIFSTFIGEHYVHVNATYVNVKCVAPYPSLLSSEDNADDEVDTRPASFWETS
pIC50: −log10 of the molar value.
ATTRIBUTE MEASURED: pIC50

## Task Fill in: pIC50 of `N#Cc1c(Oc2ccc(F)c(NC(=O)Cc3cccc(C(F)(F)F)c3)c2)ccc2nc(NC(=O)C3CC3)sc12` is ___
## Result < 5.00

---

Molecular target: Inhibitor of nuclear factor kappa-B kinase subunit beta (Homo sapiens)
Sequence (O14920 whole entry): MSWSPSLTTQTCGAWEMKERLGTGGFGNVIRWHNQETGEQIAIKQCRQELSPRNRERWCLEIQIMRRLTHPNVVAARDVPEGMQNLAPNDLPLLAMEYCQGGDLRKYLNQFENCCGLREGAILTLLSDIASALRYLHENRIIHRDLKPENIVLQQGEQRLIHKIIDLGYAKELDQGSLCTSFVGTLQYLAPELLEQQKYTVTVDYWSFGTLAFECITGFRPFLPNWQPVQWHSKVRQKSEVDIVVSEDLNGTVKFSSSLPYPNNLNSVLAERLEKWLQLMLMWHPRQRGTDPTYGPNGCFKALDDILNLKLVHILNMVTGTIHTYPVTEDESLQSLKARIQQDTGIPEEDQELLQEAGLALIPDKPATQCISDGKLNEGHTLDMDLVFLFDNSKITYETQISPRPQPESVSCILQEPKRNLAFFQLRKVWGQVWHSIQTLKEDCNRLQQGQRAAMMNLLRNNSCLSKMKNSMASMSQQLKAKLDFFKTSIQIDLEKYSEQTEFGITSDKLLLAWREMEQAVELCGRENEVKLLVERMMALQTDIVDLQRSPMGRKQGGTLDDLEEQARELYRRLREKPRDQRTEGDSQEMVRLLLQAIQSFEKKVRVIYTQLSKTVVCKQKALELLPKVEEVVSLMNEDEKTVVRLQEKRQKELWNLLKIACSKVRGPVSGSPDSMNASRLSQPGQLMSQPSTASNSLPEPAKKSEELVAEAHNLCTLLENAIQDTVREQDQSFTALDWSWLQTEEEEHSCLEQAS
Assay: Inhibition of C-terminal FLAG-tagged IKK beta (unknown origin) expressed in baculovirus system using IkappaBalpha as substrate after 40 mins
ATTRIBUTE MEASURED: IC50 (µM)
State just the number; it will be interpreted in µM.

## Task Please look up its IC50: `N#Cc1c(Oc2ccc(F)c(NC(=O)Cc3cccc(C(F)(F)F)c3)c2)ccc2nc(NC(=O)C3CC3)sc12`
## Result 3.7
